# Tested on: Puccinia recondita
# experiment: Use Example 4: preventative control of brown rust on wheat (PUCCRT P7)
# Format: in vivo
# conditionLabel: inoculated seven days after spraying, 4 ppm, % diseased leaf area
A collection of compounds and their measured % PUCCRT Disease level P7 at 4 ppm
// return the numeric value with its unit appended

1. CNC(=O)/C(=N/OC)c1cccc(Cl)c1CO/N=C(\COC)c1c(F)ccc(F)c1F ... 43%
2. CCOC/C(=N\OCc1c(Cl)cccc1/C(=C\OC)C(=O)OC)c1cccc(Cl)c1 ... 20%
3. CCOC/C(=N\OCc1c(Cl)cccc1/C(=N\OC)C(=O)OC)c1ccccc1F ... 70%
4. COC/C(=N\OCc1c(Cl)cccc1/C(=N\OC)C(=O)OC)c1cc(F)c(F)c(F)c1 ... 60%
5. CO/C=C(/C(=O)OC)c1cccc(Cl)c1CO/N=C(\COC)c1ccccc1C ... 77%

-- ask Look at this compound and give its reported % PUCCRT Disease level P7 at 4 ppm. CO/C=C(/C(=O)OC)c1cccc(Cl)c1CO/N=C(\COC)c1ccc(Cl)cc1F
-- reply 19%

-- ask Look at this compound and give its reported % PUCCRT Disease level P7 at 4 ppm. CO/C=C(/C(=O)OC)c1cccc(Cl)c1CO/N=C(\COC)c1cccc(F)c1F
-- reply 28%

-- ask Look at this compound and give its reported % PUCCRT Disease level P7 at 4 ppm. CO/C=C(/C(=O)OC)c1cccc(Cl)c1CO/N=C(\COC)c1cccc(Cl)c1F
-- reply 35%

----------
# Tested on: Puccinia recondita
# experiment: Use Example 4: preventative control of brown rust on wheat (PUCCRT P7)
# Assay type: in vivo
# conditionLabel: inoculated seven days after spraying, 4 ppm, % diseased leaf area
Respond with YES for % PUCCRT Disease level P7 at 4 ppm values of 40% and above, NO for values below.

Please review the following examples before continuing.
1. CO/C=C(/C(=O)OC)c1cccc(Cl)c1CO/N=C(\COC)c1cccc(OC)c1 [compound 121] ... NO
2. CCOC/C(=N\OCc1c(F)cccc1/C(=C\OC)C(=O)OC)c1ccc(F)cc1 [compound 16] ... YES
3. CCOC/C(=N\OCc1c(Cl)cccc1/C(=C\OC)C(=O)OC)c1c(F)cc(F)cc1F [compound 30] ... YES

-- ask Record COC/C(=N\OCc1c(Br)cccc1/C(=N\OC)C(=O)OC)c1ccccc1 [compound 57] ; criterion: % PUCCRT Disease level P7 at 4 ppm no lower than 40%. Met?
-- reply YES

-- ask Record COC/C(=N\OCc1c(Cl)cccc1/C(=N\OC)C(=O)OC)c1ccc(F)cc1F [compound 78] ; criterion: % PUCCRT Disease level P7 at 4 ppm no lower than 40%. Met?
-- reply YES

-- ask Record COC/C(=N\OCc1c(Cl)cccc1/C(=N\OC)C(=O)OC)c1ccccc1C [compound 124] ; criterion: % PUCCRT Disease level P7 at 4 ppm no lower than 40%. Met?
-- reply YES

-- ask Record COC/C(=N\OCc1c(Cl)cccc1/C(=N\OC)C(=O)OC)c1c(F)cc(Cl)cc1F [compound 89] ; criterion: % PUCCRT Disease level P7 at 4 ppm no lower than 40%. Met?
-- reply NO

-- ask Record CO/C=C(/C(=O)OC)c1cccc(Cl)c1CO/N=C(\COC)c1ccccc1F [compound 13] ; criterion: % PUCCRT Disease level P7 at 4 ppm no lower than 40%. Met?
-- reply YES

-- ask Record CNC(=O)/C(=N/OC)c1cccc(Cl)c1CO/N=C(\COC)c1cccc(Cl)c1 [compound 43] ; criterion: % PUCCRT Disease level P7 at 4 ppm no lower than 40%. Met?
-- reply NO

-- ask Record CO/C=C(/C(=O)OC)c1cccc(Cl)c1CO/N=C(\COC)c1ccccc1 [compound 11] ; criterion: % PUCCRT Disease level P7 at 4 ppm no lower than 40%. Met?
-- reply NO

-- ask Record CNC(=O)/C(=N/OC)c1cccc(Cl)c1CO/N=C(\COC)c1cccc(C(F)(F)F)c1 [compound 56] ; criterion: % PUCCRT Disease level P7 at 4 ppm no lower than 40%. Met?
-- reply NO

----------
# Test system: Phakopsora pachyrhizi containing the amino acid substitution F129L in the mitochondrial cytochrome b protein
# experiment: Use Example 1: protective control of soybean rust on soybeans (PHAKPA P2)
# Type: in vivo
# conditionLabel: inoculated 2 days after spraying, 4 ppm, % diseased leaf area
A collection of compounds and their measured % PHAKPA (F129L) Disease level P2 at 4 ppm
Only the number, expressed in %, is required.

Here is how some compounds turned out for % PHAKPA (F129L) Disease level P2 at 4 ppm.
1) CNC(=O)/C(=N/OC)c1cccc(Cl)c1CO/N=C(\COC)c1cc(Cl)ccc1F ... 29
2) COC/C(=N\OCc1c(Cl)cccc1/C(=N\OC)C(=O)OC)c1c(F)cc(F)cc1F ... 67
3) CO/C=C(/C(=O)OC)c1cccc(Cl)c1CO/N=C(\COC)c1ccc(Cl)cc1 ... 16
4) CO/C=C(/C(=O)OC)c1cccc(Cl)c1CO/N=C(\COC)c1cccc(C#N)c1 ... 31
5) COC/C(=N\OCc1c(Cl)cccc1/C(=N\OC)C(=O)OC)c1c(F)cccc1F ... 2

-- ask Look at this compound and give its reported % PHAKPA (F129L) Disease level P2 at 4 ppm. CCOCC(=NOCc1c(Cl)cccc1C(=COC)C(=O)OC)c1ccccc1
-- reply 21

-- ask Look at this compound and give its reported % PHAKPA (F129L) Disease level P2 at 4 ppm. CCOC/C(=N\OCc1c(Cl)cccc1/C(=N\OC)C(=O)NC)c1ccc(F)cc1
-- reply 80

-- ask Look at this compound and give its reported % PHAKPA (F129L) Disease level P2 at 4 ppm. CCOC/C(=N\OCc1c(Cl)cccc1/C(=N\OC)C(=O)NC)c1ccccc1F
-- reply 15

-- ask Look at this compound and give its reported % PHAKPA (F129L) Disease level P2 at 4 ppm. CCOC/C(=N\OCc1c(Cl)cccc1/C(=N\OC)C(=O)NC)c1c(F)cc(F)cc1F
-- reply 12

-- ask Look at this compound and give its reported % PHAKPA (F129L) Disease level P2 at 4 ppm. COC/C(=N\OCc1c(Cl)cccc1/C(=N\OC)C(=O)OC)c1ccc(F)cc1F [compound 62]
-- reply 5

-- ask Look at this compound and give its reported % PHAKPA (F129L) Disease level P2 at 4 ppm. CNC(=O)/C(=N/OC)c1cccc(Cl)c1CO/N=C(\COC)c1ccc(Cl)cc1F
-- reply 24

-- ask Look at this compound and give its reported % PHAKPA (F129L) Disease level P2 at 4 ppm. COC/C(=N\OCc1c(Cl)cccc1/C(=N\OC)C(=O)OC)c1c(F)cc(Cl)cc1F
-- reply 53

-- ask Look at this compound and give its reported % PHAKPA (F129L) Disease level P2 at 4 ppm. CO/C=C(/C(=O)OC)c1cccc(Br)c1CO/N=C(\COC1CC1)c1ccc(F)cc1
-- reply 15

-- ask Look at this compound and give its reported % PHAKPA (F129L) Disease level P2 at 4 ppm. CO/C=C(/C(=O)OC)c1cccc(Cl)c1CO/N=C(\COC)c1ccc(Cl)c(F)c1
-- reply 1

-- ask Look at this compound and give its reported % PHAKPA (F129L) Disease level P2 at 4 ppm. CNC(=O)/C(=N/OC)c1cccc(Cl)c1CO/N=C(\COC)c1cccc(Cl)c1Cl
-- reply 73

-- ask Look at this compound and give its reported % PHAKPA (F129L) Disease level P2 at 4 ppm. CO/C=C(/C(=O)OC)c1cccc(Cl)c1CO/N=C(\COC)c1cccc(C)c1
-- reply 4

-- ask Look at this compound and give its reported % PHAKPA (F129L) Disease level P2 at 4 ppm. CO/C=C(/C(=O)OC)c1cccc(Cl)c1CO/N=C(\COC)c1ccccn1
-- reply 1

-- ask Look at this compound and give its reported % PHAKPA (F129L) Disease level P2 at 4 ppm. COC/C(=N\OCc1c(Cl)cccc1/C(=N\OC)C(=O)OC)c1cccc(F)c1
-- reply 82

-- ask Look at this compound and give its reported % PHAKPA (F129L) Disease level P2 at 4 ppm. CNC(=O)/C(=N/OC)c1cccc(Cl)c1CO/N=C(/C#Cc1ccc(F)cc1)COC
-- reply 8

-- ask Look at this compound and give its reported % PHAKPA (F129L) Disease level P2 at 4 ppm. COC/C(=N\OCc1c(Cl)cccc1/C(=N\OC)C(=O)OC)c1ccc(F)cc1F [compound 78]
-- reply 9

-- ask Look at this compound and give its reported % PHAKPA (F129L) Disease level P2 at 4 ppm. CO/C=C(/C(=O)OC)c1cccc(Cl)c1CO/N=C(\COC)c1ccc(F)c(F)c1
-- reply 0

-- ask Look at this compound and give its reported % PHAKPA (F129L) Disease level P2 at 4 ppm. CO/C=C(/C(=O)OC)c1cccc(Cl)c1CO/N=C(\COC)c1cc(F)cc(F)c1
-- reply 5

-- ask Look at this compound and give its reported % PHAKPA (F129L) Disease level P2 at 4 ppm. COC/C(=N\OCc1c(Cl)cccc1/C(=N\OC)C(=O)OC)c1c(F)ccc(F)c1F
-- reply 39

-- ask Look at this compound and give its reported % PHAKPA (F129L) Disease level P2 at 4 ppm. COC/C(=N\OCc1c(Cl)cccc1/C(=N\OC)C(=O)OC)c1ccc(F)cc1
-- reply 20
